Would you mind telling me the reported cytotoxicity at 70.5 h of each entry?
- measurement_protocol: Human HepG2 cell viability assay in 384 well format
- Type: toxicity, cell-based
- Design: dose 125 nL, time 70.5 hour; concentration not given beside the values
- condition_label: HepG2 cells, read-out: Inhibition
One number for each entry, in %.

Below are worked cases with known answers.
{"columns": ["compound", "cytotoxicity at 70.5 h [%]"],
 "data": [
  ["CC(=O)N1CCCN(c2nccc(-c3c(C)nn(C)c3C)n2)CC1", -3.87],
  ["CN1CCN(C2CCN(CCCOc3ccc(F)cc3)CC2)C1=O", 19.6]
]}

Can you give me cytotoxicity at 70.5 h for all of these, one by one?
1. Cn1nc2c(cc1=O)CN(Cc1ccc(-n3cccn3)cc1)CC2
2. Cc1n[nH]c(-c2ccc(NC(=O)C(C)(C)N3CCN(C)CC3)cc2)n1
3. N#CCSCCCN1CCCC(C(=O)N2CCCCCC2)C1 (stereo unspecified)
4. Cc1[nH]c(-c2ccccc2)nc1C(=O)N1CC[C@H](CO)[C@@H](O)C1
5. Cc1cc(C(=O)N2CC[C@H]3C[C@H](c4ccncn4)O[C@@H]3C2)c(C)[nH]1
6. COCCn1cc(CC(=O)Nc2c(C)nn(C)c2C)c2ccccc21
7. COc1cc(CNc2cc(-c3nncn3C)ccn2)cc(OC)c1OC

Result:
[-6.38, -7.96, -4.07, 23.4, -4.78, -5.58, -3.3]

For the 7 compounds below, give their cytotoxicity at 70.5 h values.
1. CC(C)(C)NC(=O)NC(=O)COc1nc(C(C)(C)C)no1
2. COc1ccc(Cl)cc1C(C(=O)O)N(C)Cc1ccon1 (stereo unspecified)
3. c1cnc(NC[C@H]2OC[C@@H]3CCN(Cc4cccnc4)C[C@@H]32)nc1
4. Cn1ccnc1CN1CCN(Cc2noc(-c3ccccc3)n2)CC1
5. O=C(N[C@@H]1CN(Cc2ccco2)[C@@H]2CCCO[C@@H]21)c1cscn1
6. CCC(CC)C(=O)NCc1cnn(CC)c1
7. CC(C)n1cnc(-c2nc(C(=O)NC3CC3)c3ccccn23)c1

Result:
[13, 11.7, -12.6, -4.14, -5.42, -13.4, -15.8]

For every record below, what is its cytotoxicity at 70.5 h?
1. O=C(C1CCC1)N1CCOc2cccc(F)c21
2. COCCN(C)CC1CCCN1S(=O)(=O)c1cccc(F)c1F (stereo unspecified)
3. CC(=O)c1ccc(C(=O)NCc2cccnc2N2CCCC(O)C2)s1 (stereo unspecified)
4. CNC(=O)C1(CCCc2ccccn2)CCN1Cc1coc(C)n1 (stereo unspecified)
5. Cn1ccnc1CNC(=O)c1cncc(C2CCNCC2)n1
6. Cc1nc(C)n(CC2CCCN2Cc2nc3ccccc3c(=O)[nH]2)n1 (stereo unspecified)
7. COc1ccccc1OC1CN(C(=O)C2CNCC(=O)N2)C1 (stereo unspecified)
8. COc1ccsc1C(=O)Nc1cc(Cl)c(=O)n(C)c1

Result:
1: -9.1; 2: -4.32; 3: -14.1; 4: 14.6; 5: -5.18; 6: -1.61; 7: -9.64; 8: -5.8

Below are 8 compounds. Give each one its cytotoxicity at 70.5 h.
1. O=C1CO[C@H]2CN(Cc3ccc4c(c3)OCO4)C[C@H]2N1
2. Cc1cc(C2CCC2)nc(N2CCC3(CC2)OCCCC3O)n1 (stereo unspecified)
3. CN1CC(=O)N(c2ccsc2)CC12CCN(Cc1nccn1C)C2 (stereo unspecified)
4. CCCn1ncc(C(=O)N(CCOC)Cc2c(C)nn(CC)c2C)c1C
5. Cc1cc(OC(F)F)c(C(=O)N2CC[C@H](O)C2)s1
6. CN(C)CC(=O)N1CCCC1c1cncc(Oc2ccc(F)cc2)n1 (stereo unspecified)
7. CC(C)N1CCOC(CC(=O)N2CCCN(Cc3cccs3)CC2)C1 (stereo unspecified)
8. COc1cccc(N2C(=O)CC3(CCCNC3)C2=O)c1 (stereo unspecified)

Result:
-7.08
-8.75
-0.505
-7.73
-6.12
11.5
-11.6
-5.35

----------
- measurement_protocol: Human HepG2 cell viability assay in 384 well format
- Type: toxicity, cell-based
- Parameters: dose 125 nL, time 70.5 hour; concentration not given beside the values
- condition_label: HepG2 cells, read-out: Inhibition
measure: cytotoxicity at 70.5 h (%)
Give bare numbers, in %.

{"columns": ["molecule", "cytotoxicity at 70.5 h (%)"],
 "data": [
  ["O=C(NCCc1ccc(Cl)s1)NCc1nnc2n1CCC2", 8.18],
  ["Cc1cccc2[nH]c(C3CCN(C(=O)c4cnc[nH]c4=O)CC3)nc12", -1.84],
  ["Cc1noc(C)c1CN1CCCC1c1nnc2ccccn12 (stereo not drawn)", -23.7],
  ["COC(=O)c1ccc(CNC(=O)Cc2csc(C(C)=O)c2)cc1", 4.17],
  ["Cc1cnn(CC2CCCN2C(=O)c2nccc3ccccc23)c1 (stereo not drawn)", -15.9],
  ["Cc1noc(C)c1CN1CCC(c2nnc(Cn3cccn3)n2C)CC1", -6.21],
  ["COCC1CN(C(=O)c2cccn2C)Cc2cnn(C)c21 (stereo not drawn)", -0.85],
  ["CC1CCN(C(=O)[C@@H]2C[C@@H]3CCN(CC4CCOCC4)C[C@@H]3O2)CC1", -7.26],
  ["CC(C)OCCCNC(=O)CN(c1ccc(F)c(F)c1)S(C)(=O)=O", -6.87],
  ["CCc1nccn1C1CCCN(C(=O)c2ccc3[nH]nnc3c2)C1 (stereo not drawn)", -8.95]
]}

Quick one: give me cytotoxicity at 70.5 h for each item below, same order please.
1. O=C(c1ccc2c(c1)COC2)N1CCCN(Cc2cscn2)CC1
2. O=C(O)c1ccccc1-n1cnc(CN2CCCc3ccccc32)c1
3. O=C(NCCCn1cccn1)C1CCC(=O)N(CC2CCCCC2)C1 (stereo not drawn)

Result:
[1.09, -2.75, -2.08]

----------
- measurement_protocol: Human HepG2 cell viability assay in 384 well format
- Format: toxicity, cell-based
- Parameters: dose 125 nL, time 70.5 hour; concentration not given beside the values
- condition_label: HepG2 cells, read-out: Inhibition
measure: cytotoxicity at 70.5 h (%)
Answers are plain numbers, in %.

Some solved entries appear below for comparison.
{"columns": ["compound", "cytotoxicity at 70.5 h [%]"],
 "data": [
  ["CCN(Cc1ccc(S(C)(=O)=O)cc1)Cc1nc(COC)no1", -11.1],
  ["Cn1ccc(C(=O)N2CCC(Cc3ccc4ncccc4c3)CC2)n1", 14.8],
  ["Cc1ccccc1CN1CCOC(c2nccc(CN(C)C)n2)C1 (stereo unspecified)", -8.08],
  ["COc1ccc(C(=O)Nc2c(C)nn(C(C)C)c2C)cc1", 23.1],
  ["Cc1cccc(S(=O)(=O)NCC2CCN(c3cnccn3)CC2)c1", -10.1]
]}

Then this compound:
Task: Look up cytotoxicity at 70.5 h: O=C(CC1CCCC1)N1CCC2(CC1)[C@H](O)C[C@@H]2O
Result: -12.2

----------
For each record, write down the corresponding cytotoxicity at 70.5 h.
- measurement_protocol: Human HepG2 cell viability assay in 384 well format
- Format: toxicity, cell-based
- Set-up: dose 125 nL, time 70.5 hour; concentration not given beside the values
- condition_label: HepG2 cells, read-out: Inhibition
Numbers only, in %.

The examples below pair each entry with its known result.
{"columns": ["compound", "unit_string", "cytotoxicity at 70.5 h"],
 "data": [
  ["CN1CCN(C(=O)c2ccccc2)CC(Cc2cc(N(C)C)ncn2)C1 (stereo unspecified)", "%", -3.72],
  ["Cc1cc(C(=O)N2C[C@H](CO)C[C@H](CN3CCOCC3)C2)nc(C)n1", "%", -7.67],
  ["CC1CCN(CC(O)CN2CCn3c(nnc3C3CC3)C2)CC1 (stereo unspecified)", "%", 35.7]
]}

Below are 6 compounds. Give each one its cytotoxicity at 70.5 h.
1. CC/C=C(/C)C(=O)NS(=O)(=O)c1ccc(C#N)cc1C(F)(F)F
2. CC(C)N(CC(=O)Nc1cccc(C(=O)N(C)C)c1)C1CC1
3. NC(=O)C(NC(=O)COCCc1ccccc1)c1ccccc1F (stereo unspecified)
4. COc1cc(CNC(=O)N(Cc2ccc(F)cc2F)C2CC2)ccn1
5. Cc1c(C)n2c(SCC(=O)N3CCOCC3)nnc2[nH]c1=O
6. CSc1cccc(CN2CCC(CCC(=O)NCCN(C)C)CC2)c1

Result:
-7.29
7.53
5.16
-12.9
-3.31
-6.05

Look at each compound and report its cytotoxicity at 70.5 h.
1. CC(C)OC(=O)N1C[C@H]2CC[C@@H]1CN(Cc1cccnc1)C2
2. O=C(c1ccoc1)N1CCC2(CC1)COC(COc1ccccn1)C2 (stereo unspecified)

Result:
1: -3.17; 2: -4.94

----------
- measurement_protocol: Human HepG2 cell viability assay in 384 well format
- Format: toxicity, cell-based
- Parameters: dose 125 nL, time 70.5 hour; concentration not given beside the values
- condition_label: HepG2 cells, read-out: Inhibition
measure: cytotoxicity at 70.5 h (%)
One number for each entry, in %.

Solved cases below.
{"columns": ["compound", "cytotoxicity at 70.5 h [%]"],
 "data": [
  ["CC(C)c1cc(NC(=O)CN2CCC(C(N)=O)CC2)on1", -6.12],
  ["Cc1cc(NC(=O)C(C)N2CCN(c3ccccc3F)CC2)no1 (centres undefined)", 4.65],
  ["COc1ccc(NC(=O)N(C)Cc2ccc(Br)o2)cn1", -6.19],
  ["Cc1cc(C)c(-n2cccn2)c(CN2CCOCC(CN(C)C)C2)c1 (centres undefined)", -3.75],
  ["Cc1n[nH]c(C)c1CCC(=O)N[C@@H]1CCC[C@@H](Oc2ccccc2)[C@@H]1O", 21.6]
]}

Hey, quick one: what's cytotoxicity at 70.5 h for each of these?
1. CC(C(=O)NC1CCCC1)S(=O)(=O)Cc1noc(C(C)(C)C)n1 (centres undefined)
2. CC(C)NC(=O)[C@H]1C[C@@H]2[C@@H](C1)OCCN2Cc1cnn(C)c1

Result:
7.9
-4.89

Answer for every listed entry: what is its cytotoxicity at 70.5 h? The entries follow.
1. c1ccc2c(N3CCSCC3)cnnc2c1
2. CCN(C)S(=O)(=O)c1ccc(Cl)cc1C#N
3. Cc1cccc(-c2noc(CN3CCc4c(ncn4C4CC4)C3)n2)c1
4. N#Cc1cccnc1N1CCCC(CO)(Cc2ccc(F)cc2)C1 (centres undefined)
5. Cc1cc(C2CN(CC(=O)NCc3ccco3)CCO2)ccc1F (centres undefined)
6. Fc1ccccc1CO[C@@H]1C[C@H]2CN(c3ncccn3)CCN2C1
7. O=C1C(Sc2nnnn2C2CC2)CCN1c1ccccc1Cl (centres undefined)

Result:
1. -3.97
2. -7.9
3. -13.2
4. -5.86
5. -11.9
6. 4.66
7. -6.47
